Assay: Cytotoxicity assay, CellTiter-Glo cell viability
Assay type: cell-based
Details: African green monkey; Vero cells, 72 hours; read-out: Cytotoxicity IC50
Description: Cytotoxicity was determined by determining the effect of compounds on cell viability. […] After an additional 72 hours of incubation, viability was indirectly measured using the CellTiter-Glo® Luminescent Cell Viability (Promega) assay. Assay plates were read at peak emission wavelength of 560 nm using a EnVision® Multilabel Plate Reader (Perkin Elmer) or PHERAstar FS Multilabel reader (BMG, Cary, N.C.). […]
Where a SMILES comes first, the peptide text is derived from it. Bridges are numbered along the chain shown (N, C = ends). [ ]: non-standard residue; d: D form. The star is where a group is joined. Phe(3,5-F2) = N[C@@H](Cc1cc(F)cc(F)c1)C(=O)O; Heptenoyl(2E) = CCCC/C=C/C(=O)*; aThr = C[C@H](O)[C@H](N)C(=O)O; Pip = O=C(O)[C@@H]1CCCCN1
What IC50 at 72 h was measured for each of the following?
Give bare numbers, in µM.

Look over these answered cases.
{"compound": "CCCC/C=C/C(=O)N[C@@H](Cc1cc(F)cc(F)c1)C(=O)N[C@@H]1C(=O)N2CCC[C@H]2C(=O)N2CCCC[C@H]2C(=O)N[C@@H](C)C(=O)N2CCC[C@H]2C(=O)O[C@H]1C [ADEP 2719, reference compound] ({Heptenoyl(2E)}-[Phe(3,5-F2)][aThr]P[Pip]AP; ester 2-C)", "IC50 at 72 h / µM": 37.7}
{"compound": "Cc1ccc(NC(=O)N[C@@H](Cc2cc(F)cc(F)c2)C(=O)N[C@@H]2C(=O)N3CCC[C@H]3C(=O)N3CCCC[C@H]3C(=O)N[C@@H](C)C(=O)N3C[C@@H](C)C[C@H]3C(=O)O[C@H]2C)cc1 [Compound 18]", "IC50 at 72 h / µM": 26.7}
{"compound": "C[C@@H]1C[C@H]2C(=O)OC[C@H](NC(=O)[C@H](Cc3ccccc3)NC(=O)Nc3ccc(Cl)cc3)C(=O)N3CCC[C@H]3C(=O)N3CCCC[C@H]3C(=O)N[C@@H](C)C(=O)N2C1 [Compound 3]", "IC50 at 72 h / µM": 63}

INPUT: Which IC50 at 72 h reading was recorded for the compound Cc1ccc(NC(=O)N[C@@H](Cc2cc(F)cc(F)c2)C(=O)N[C@@H]2C(=O)N3CCCC3C(=O)N(C)[C@@H](C)C(=O)N[C@@H](C)C(=O)N3C[C@@H](C)CC3C(=O)O[C@H]2C)cc1 (stereo partly shown) [Compound 26] ?
OUTPUT: 40.5

* * *

Test system: S. pneumoniae R6
Assay: Minimal inhibitory concentration, microbroth dilution
Type: cell-based
Details: Streptococcus pneumoniae, R6, read-out: Minimal Inhibitory Concentration S. pneumoniae R6
*1 amine or outer side, *2 acyl side, *3 side chain or, on linkers, in order; H or OH if unused. Where a SMILES comes first, the peptide text is derived from it. Bridges are numbered along the chain shown (N, C = ends). [ ]: non-standard residue; d: D form. The star is where a group is joined. Phe(3,5-F2) = N[C@@H](Cc1cc(F)cc(F)c1)C(=O)O; NHPh(4-CF3) = FC(F)(F)c1ccc(N*)cc1; aThr = C[C@H](O)[C@H](N)C(=O)O; Pip = O=C(O)[C@@H]1CCCCN1; CO = O=C([*:1])[*:2]
experimental_endpoint: MIC (µM)
One number for each entry, in µM.

Look over these answered cases.
{"compound": "C[C@@H]1NC(=O)[C@@H]2CCCCN2C(=O)[C@@H]2CCCN2C(=O)[C@@H](NC(=O)[C@H](Cc2cc(F)cc(F)c2)NC(=O)Nc2ccc(C(F)(F)F)cc2)[C@H](C)OC(=O)[C@@H]2CCCN2C1=O [Compound 16] ({NHPh(4-CF3)-CO}-[Phe(3,5-F2)][aThr]P[Pip]AP; ester 2-C)", "test_system": "S. pneumoniae R6", "assay_result": 0.8}
{"compound": "Cc1ccc(NC(=O)N[C@@H](Cc2cc(F)cc(F)c2)C(=O)N[C@H]2COC(=O)C3CC(C)(C)CN3C(=O)[C@H](C)NC(=O)C3CCCCN3C(=O)C3CCCN3C2=O)cc1 (some centres unmarked) [Compound 49]", "test_system": "S. pneumoniae R6", "assay_result": 6.3}

For every listed record, write down its MIC.
1. Cc1ccc(NC(=O)N[C@@H](Cc2cc(F)cc(F)c2)C(=O)N[C@@H]2C(=O)N3CCCC3C(=O)N3CCOCC3C(=O)N[C@@H](C)C(=O)N3C[C@@H](C)CC3C(=O)O[C@H]2C)cc1 (some centres unmarked) [Compound 33]
2. Cc1ccc(NC(=O)N[C@@H](Cc2ccccc2)C(=O)N[C@H]2COC(=O)C3C[C@H](C)CN3C(=O)[C@H](C)NC(=O)C3CCCCN3C(=O)C3CCCN3C2=O)cc1 (some centres unmarked) [Compound 43]
3. C[C@H]1C[C@H]2C(=O)O[C@@H](C)[C@H](NC(=O)[C@H](Cc3cc(F)cc(F)c3)NC(=O)Nc3ccc(C(F)(F)F)cc3)C(=O)N3CCC[C@H]3C(=O)N3CCCC[C@H]3C(=O)N[C@@H](C)C(=O)N2C1 [Compound 19]
4. Cc1ccc(NC(=O)N[C@@H](Cc2cc(F)cc(F)c2)C(=O)N[C@H]2COC(=O)C3C[C@H](C)CN3C(=O)[C@H](C)NC(=O)C3CCCCN3C(=O)C3CCCN3C2=O)cc1 (some centres unmarked) [Compound 45]
5. Cc1ccc(NC(=O)N[C@@H](Cc2cc(F)cc(F)c2)C(=O)N[C@@H]2C(=O)N3CCCC3C(=O)N(C)[C@@H]([C@H](C)O)C(=O)N[C@@H](C)C(=O)N3C[C@H](C)CC3C(=O)O[C@H]2C)cc1 (some centres unmarked) [Compound 38]
6. Cc1ccc(NC(=O)N[C@@H](Cc2cc(F)cc(F)c2)C(=O)N[C@@H]2C(=O)N3C[C@H](O)CC3C(=O)N(C)[C@@H](C)C(=O)N[C@@H](C)C(=O)N3C[C@@H](C)CC3C(=O)O[C@H]2C)cc1 (some centres unmarked) [Compound 31]

OUTPUT:
[0.098, 0.2, 0.8, 0.1, 0.02, 0.195]

For every listed record, write down its MIC.
1. Cc1ccc(NC(=O)N[C@@H](Cc2cc(F)cc(F)c2)C(=O)N[C@@H]2C(=O)N3CCCC3C(=O)N3CCOCC3C(=O)N[C@@H](C)C(=O)N3C[C@H](C)CC3C(=O)O[C@H]2C)cc1 (some centres unmarked) [Compound 47]
2. Cc1ccc(NC(=O)N[C@@H](Cc2cc(F)cc(F)c2)C(=O)N[C@@H]2C(=O)N3CCCC3C(=O)N3CCCCC3C(=O)N[C@@H](C)C(=O)N3C[C@H](C)CC3C(=O)O[C@H]2C)cc1 (some centres unmarked) [Compound 39]

OUTPUT:
[0.002, 0.05]

* * *

Tested on: B. subtilis ATCC 23857
Assay: Minimal inhibitory concentration, microbroth dilution
Format: cell-based
Details: Bacillus subtilis, ATCC23857, read-out: Minimal Inhibitory Concentration B. subtilis ATCC 23857
What MIC was measured for each of the following?
Give bare numbers, in µM.

{"compound": "Cc1ccc(NC(=O)N[C@@H](Cc2cc(F)cc(F)c2)C(=O)N[C@@H]2C(=O)N3C[C@H](O)CC3C(=O)N(C)[C@@H](C)C(=O)N[C@@H](C)C(=O)N3C[C@@H](C)CC3C(=O)O[C@H]2C)cc1 (stereo partly drawn)", "experimental_endpoint": "MIC", "assay_result": 0.39}

For every listed record, write down its MIC.
1. COc1ccc(NC(=O)N[C@@H](Cc2ccccc2)C(=O)N[C@H]2COC(=O)[C@@H]3C[C@@H](C)CN3C(=O)[C@H](C)NC(=O)[C@@H]3CCCCN3C(=O)[C@@H]3CCCN3C2=O)cc1
2. Cc1ccc(NC(=O)N[C@@H](Cc2cc(F)cc(F)c2)C(=O)N[C@H]2COC(=O)[C@@H]3C[C@@H](C)CN3C(=O)[C@H](C)NC(=O)[C@@H]3CCCCN3C(=O)[C@@H]3CCCN3C2=O)cc1
3. Cc1ccc(NC(=O)N[C@@H](Cc2cc(F)cc(F)c2)C(=O)N[C@@H]2C(=O)N3CCCC3C(=O)N(C)[C@@H]([C@H](C)O)C(=O)N[C@@H](C)C(=O)N3C[C@H](C)CC3C(=O)O[C@H]2C)cc1 (stereo partly drawn)
4. Cc1ccc(NC(=O)N[C@@H](Cc2cc(F)cc(F)c2)C(=O)N[C@@H]2C(=O)N3CCCC3C(=O)N3CCCCC3C(=O)N[C@@H](C)C(=O)N3C[C@H](C)CC3C(=O)O[C@H]2C)cc1 (stereo partly drawn)
5. Cc1ccc(NC(=O)N[C@@H](Cc2cc(F)cc(F)c2)C(=O)N[C@@H]2C(=O)N3CCCC3C(=O)N3CCOCC3C(=O)N[C@@H](C)C(=O)N3C[C@@H](C)CC3C(=O)O[C@H]2C)cc1 (stereo partly drawn)

OUTPUT:
[1.56, 2.2, 0.05, 0.02, 0.2]
